Tgt: Inhibitor of NF-kappa-B kinase (IKK) (Homo sapiens, UniProt O14920+O15111+Q9Y6K9)
Sequence (O14920 whole entry): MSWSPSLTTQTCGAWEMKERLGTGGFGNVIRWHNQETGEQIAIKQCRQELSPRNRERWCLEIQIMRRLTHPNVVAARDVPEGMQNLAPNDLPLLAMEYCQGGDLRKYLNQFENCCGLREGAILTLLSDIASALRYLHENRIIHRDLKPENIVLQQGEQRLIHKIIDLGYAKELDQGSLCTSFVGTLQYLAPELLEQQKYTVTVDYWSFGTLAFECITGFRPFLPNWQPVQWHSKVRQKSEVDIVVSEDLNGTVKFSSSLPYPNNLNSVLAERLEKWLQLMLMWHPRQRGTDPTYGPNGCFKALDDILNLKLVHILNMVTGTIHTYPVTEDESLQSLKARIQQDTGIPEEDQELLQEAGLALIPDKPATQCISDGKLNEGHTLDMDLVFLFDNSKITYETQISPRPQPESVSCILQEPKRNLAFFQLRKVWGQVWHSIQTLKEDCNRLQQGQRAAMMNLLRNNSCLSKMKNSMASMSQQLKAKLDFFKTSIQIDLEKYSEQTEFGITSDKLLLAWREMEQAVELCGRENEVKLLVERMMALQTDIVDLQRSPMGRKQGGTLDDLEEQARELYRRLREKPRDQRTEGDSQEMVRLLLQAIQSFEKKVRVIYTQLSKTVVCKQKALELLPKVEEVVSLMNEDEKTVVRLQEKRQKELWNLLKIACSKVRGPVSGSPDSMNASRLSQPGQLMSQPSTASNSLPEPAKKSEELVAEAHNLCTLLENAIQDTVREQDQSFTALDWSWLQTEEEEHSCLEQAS
Sequence (O15111 whole entry): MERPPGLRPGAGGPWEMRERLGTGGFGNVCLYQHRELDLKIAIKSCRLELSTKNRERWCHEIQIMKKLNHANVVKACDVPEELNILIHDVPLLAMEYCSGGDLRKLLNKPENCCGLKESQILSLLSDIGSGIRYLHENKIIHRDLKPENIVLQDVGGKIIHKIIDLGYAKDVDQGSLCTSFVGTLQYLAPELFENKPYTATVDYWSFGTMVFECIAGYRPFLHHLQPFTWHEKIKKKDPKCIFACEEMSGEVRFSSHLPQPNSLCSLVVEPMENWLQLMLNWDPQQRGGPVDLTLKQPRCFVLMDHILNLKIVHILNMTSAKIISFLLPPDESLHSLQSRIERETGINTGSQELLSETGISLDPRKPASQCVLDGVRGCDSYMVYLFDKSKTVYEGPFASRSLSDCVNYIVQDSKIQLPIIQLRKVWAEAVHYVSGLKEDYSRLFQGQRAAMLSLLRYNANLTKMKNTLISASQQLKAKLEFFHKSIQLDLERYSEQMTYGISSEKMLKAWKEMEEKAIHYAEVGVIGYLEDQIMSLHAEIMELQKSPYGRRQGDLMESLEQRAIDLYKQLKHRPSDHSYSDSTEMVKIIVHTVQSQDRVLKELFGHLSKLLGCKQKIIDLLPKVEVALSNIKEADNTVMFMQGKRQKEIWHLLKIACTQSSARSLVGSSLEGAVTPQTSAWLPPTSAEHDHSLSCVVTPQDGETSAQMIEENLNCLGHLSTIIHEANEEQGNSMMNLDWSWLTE
Sequence (Q9Y6K9 whole entry): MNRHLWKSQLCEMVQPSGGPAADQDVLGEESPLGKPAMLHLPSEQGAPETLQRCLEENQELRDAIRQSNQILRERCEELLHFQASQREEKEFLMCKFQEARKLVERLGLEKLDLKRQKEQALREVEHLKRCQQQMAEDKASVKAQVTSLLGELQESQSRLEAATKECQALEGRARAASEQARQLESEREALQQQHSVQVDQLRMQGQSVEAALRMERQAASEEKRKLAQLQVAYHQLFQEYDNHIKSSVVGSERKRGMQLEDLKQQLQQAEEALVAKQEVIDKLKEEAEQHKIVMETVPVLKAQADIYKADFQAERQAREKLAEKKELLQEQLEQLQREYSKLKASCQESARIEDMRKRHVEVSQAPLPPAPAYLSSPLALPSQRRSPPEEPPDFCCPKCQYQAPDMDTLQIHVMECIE
Protocol: Inhibitory activity against IKK complex isolated from HeLa cells
Assay type: cell-based
Observation Type: IC50 (nM)

Consider the following illustrative entries.
{"columns": ["Molecule Smiles", "Reading"],
 "data": [
  ["O=C(c1ccc(Nc2nccc(-c3cc4ccccc4s3)n2)cc1)N1CCC(N2CCCC2)CC1", 70],
  ["CCC(N)(CC)CCc1ccc(-c2ccnc(Nc3ccc(C(=O)N4CCC(N5CCCC5)CC4)cc3)n2)s1", 30],
  ["CN(C)CCNC(=O)c1ccc(Nc2nccc(-c3cc4ccccc4s3)n2)cc1", 300],
  ["COCCCc1ccc(-c2ccnc(Nc3ccc(C(=O)N4CCC(N5CCCC5)CC4)cc3)n2)s1", 100],
  ["O=C(O)c1ccc(Nc2nccc(-c3cc4ccccc4s3)n2)cc1", 18000]
]}

[1] O=C(c1ccc(Nc2nccc(-c3ccc(CCCCO)s3)n2)cc1)N1CCC(N2CCCC2)CC1
[2] COc1cc(Nc2nccc(-c3cc4ccccc4s3)n2)ccc1C(=O)N1CCC(N2CCCC2)CC1
Identify the entry with the smaller IC50: 1 or 2 . Refer to your chosen entry by its label in the reply.
1
(1: 40 nM, 2: 150 nM)

[a] CC(=O)NC(C)(C)CCc1ccc(-c2ccnc(Nc3ccc(C(=O)N4CCC(N5CCCC5)CC4)cc3)n2)s1
[b] O=C(NCCN1CCCC1)c1ccc(Nc2nccc(-c3cc4ccccc4s3)n2)cc1
[c] CC(C)(N)CCc1ccc(-c2ccnc(Nc3ccc(C(=O)N4CCC(N5CCCC5)CC4)cc3)n2)s1
# desc sort on IC50 across 3 compounds Put the labels in the requested order and list them out.
a, b, c
(a: 800 nM, b: 500 nM, c: 40 nM)

[1] O=C(c1ccc(Nc2nccc(-c3cc4ccccc4s3)n2)cc1)N1CCCC1
[2] CN(C)C1CCN(C(=O)c2ccc(Nc3nccc(-c4cc5ccccc5s4)n3)cc2)CC1
[3] O=C(c1ccc(Nc2nccc(-c3cc4ccccc4s3)n2)cc1Cl)N1CCC(N2CCCC2)CC1
Reorder the items by IC50, least to greatest. Order the labels as requested and give them as your answer.
2, 3, 1

Cited source for all entries: ChEMBL document CHEMBL1147757
